# reported Loewe synergy score; entries follow
- System: U87
- methodNotes: Loewe synergy score (Combenefit); higher = more synergy; extreme values may be limits of the assay
- testSettings: exposure time: 72 h

| compound | Loewe synergy score |
| --- | --- |
| CC(=O)O[C@@]12CO[C@@H]1C[C@H](O)[C@@]1(C)C(=O)[C@H](O)C3=C(C)[C@@H](OC(=O)[C@H](O)[C@@H](NC(=O)OC(C)(C)C)c4ccccc4)C[C@@](O)([C@@H](OC(=O)c4ccccc4)[C@H]21)C3(C)C [Docetaxel] + CCC(=O)N1CCN(c2ccc(-n3c(=O)ccc4cnc5ccc(-c6cnc7ccccc7c6)cc5c43)cc2C(F)(F)F)CC1 [Torin1] | 20.6 |
| Nc1ccn([C@@H]2O[C@H](CO)[C@@H](O)C2(F)F)c(=O)n1 [Gemcitabine] + CO[C@H]1C[C@@H]2CC[C@@H](C)[C@@](O)(O2)C(=O)C(=O)N2CCCC[C@H]2C(=O)O[C@H]([C@H](C)C[C@@H]2CC[C@@H](O)[C@H](OC)C2)CC(=O)[C@H](C)/C=C(\C)[C@@H](O)[C@@H](OC)C(=O)[C@H](C)C[C@H](C)/C=C/C=C/C=C/1C [Rapamycin] | 10 |
| CCC(=O)N1CCN(c2ccc(-n3c(=O)ccc4cnc5ccc(-c6cnc7ccccc7c6)cc5c43)cc2C(F)(F)F)CC1 [Torin1] + C#Cc1cccc(Nc2ncnc3cc(OCCOC)c(OCCOC)cc23)c1 [Erlotinib] | 6.1 |
| C=CCc1cccc(/C=N/NC(=O)CN2CCN(Cc3ccccc3)CC2)c1O [PAC-1] + CCOc1nc(NC(=O)Cc2cc(OC)ccc2OC)cc(N)c1C#N [JNK inhibitor VIII] | 4.97 |

###

- Tested on: KNS-42
- methodNotes: Loewe synergy score (Combenefit); higher = more synergy; extreme values may be limits of the assay
- testSettings: exposure time: 72 h

| compound | Loewe synergy score |
| --- | --- |
| CC(=O)O[C@@]12CO[C@@H]1C[C@H](O)[C@@]1(C)C(=O)[C@H](O)C3=C(C)[C@@H](OC(=O)[C@H](O)[C@@H](NC(=O)OC(C)(C)C)c4ccccc4)C[C@@](O)([C@@H](OC(=O)c4ccccc4)[C@H]21)C3(C)C [Docetaxel] + CCCCCCCCCCCC1=C(O)C(=O)C=C(O)C1=O [Embelin] | 3.76 |
| C=CCc1cccc(/C=N/NC(=O)CN2CCN(Cc3ccccc3)CC2)c1O [PAC-1] + CCOc1nc(NC(=O)Cc2cc(OC)ccc2OC)cc(N)c1C#N [JNK inhibitor VIII] | 7.1 |
| C#Cc1cccc(Nc2ncnc3cc(OCCOC)c(OCCOC)cc23)c1 [Erlotinib] + N#CC(c1ccnc(NCCc2cccnc2)n1)c1nc2ccccc2s1 [AS601245] | 1.56 |
| C#Cc1cccc(Nc2ncnc3cc(OCCOC)c(OCCOC)cc23)c1 [Erlotinib] + CCCCCCCCCCCC1=C(O)C(=O)C=C(O)C1=O [Embelin] | 5.93 |
| CO[C@H]1C[C@@H]2CC[C@@H](C)[C@@](O)(O2)C(=O)C(=O)N2CCCC[C@H]2C(=O)O[C@H]([C@H](C)C[C@@H]2CC[C@@H](O)[C@H](OC)C2)CC(=O)[C@H](C)/C=C(\C)[C@@H](O)[C@@H](OC)C(=O)[C@H](C)C[C@H](C)/C=C/C=C/C=C/1C [Rapamycin] + Cc1cc([C@@H](C)Nc2ccccc2C(=O)O)c2nc(N3CCOCC3)cc(=O)n2c1 [AZD6482] | 2.6 |
| Nc1ccn([C@@H]2O[C@H](CO)[C@@H](O)C2(F)F)c(=O)n1 [Gemcitabine] + CCOc1nc(NC(=O)Cc2cc(OC)ccc2OC)cc(N)c1C#N [JNK inhibitor VIII] | 0.883 |
| CCCCCCCCCCCC1=C(O)C(=O)C=C(O)C1=O [Embelin] + N#CC(c1ccnc(NCCc2cccnc2)n1)c1nc2ccccc2s1 [AS601245] | 2.73 |
| CC(=O)O[C@@]12CO[C@@H]1C[C@H](O)[C@@]1(C)C(=O)[C@H](O)C3=C(C)[C@@H](OC(=O)[C@H](O)[C@@H](NC(=O)OC(C)(C)C)c4ccccc4)C[C@@](O)([C@@H](OC(=O)c4ccccc4)[C@H]21)C3(C)C [Docetaxel] + N#CC(c1ccnc(NCCc2cccnc2)n1)c1nc2ccccc2s1 [AS601245] | 3.02 |
| CCC(=O)N1CCN(c2ccc(-n3c(=O)ccc4cnc5ccc(-c6cnc7ccccc7c6)cc5c43)cc2C(F)(F)F)CC1 [Torin1] + O=c1[nH]c2ccccc2n1C1CCN(Cc2ccc(-c3[nH]c4cc5ncnc5cc4nc3-c3ccccc3)cc2)CC1 [Akt inhibitor VIII] | 11.3 |
| C#Cc1cccc(Nc2ncnc3cc(OCCOC)c(OCCOC)cc23)c1 [Erlotinib] + O=c1[nH]c2ccccc2n1C1CCN(Cc2ccc(-c3[nH]c4cc5ncnc5cc4nc3-c3ccccc3)cc2)CC1 [Akt inhibitor VIII] | 12.3 |

###

- System: U87
- methodNotes: Bliss synergy score (Combenefit); higher = more synergy; extreme values may be limits of the assay
- testSettings: exposure time: 72 h

| compound | Bliss synergy score |
| --- | --- |
| C[C@@H](Oc1cc(-c2cnn(C3CCNCC3)c2)cnc1N)c1c(Cl)ccc(F)c1Cl [Crizotinib] + C=CCc1cccc(/C=N/NC(=O)CN2CCN(Cc3ccccc3)CC2)c1O [PAC-1] | 4.47 |
| Nc1ccn([C@@H]2O[C@H](CO)[C@@H](O)C2(F)F)c(=O)n1 [Gemcitabine] + C[C@@H](Oc1cc(-c2cnn(C3CCNCC3)c2)cnc1N)c1c(Cl)ccc(F)c1Cl [Crizotinib] | 0 |
| CC(=O)O[C@@]12CO[C@@H]1C[C@H](O)[C@@]1(C)C(=O)[C@H](O)C3=C(C)[C@@H](OC(=O)[C@H](O)[C@@H](NC(=O)OC(C)(C)C)c4ccccc4)C[C@@](O)([C@@H](OC(=O)c4ccccc4)[C@H]21)C3(C)C [Docetaxel] + C#Cc1cccc(Nc2ncnc3cc(OCCOC)c(OCCOC)cc23)c1 [Erlotinib] | 0 |
| CO[C@H]1C[C@@H]2CC[C@@H](C)[C@@](O)(O2)C(=O)C(=O)N2CCCC[C@H]2C(=O)O[C@H]([C@H](C)C[C@@H]2CC[C@@H](O)[C@H](OC)C2)CC(=O)[C@H](C)/C=C(\C)[C@@H](O)[C@@H](OC)C(=O)[C@H](C)C[C@H](C)/C=C/C=C/C=C/1C [Rapamycin] + CCOc1nc(NC(=O)Cc2cc(OC)ccc2OC)cc(N)c1C#N [JNK inhibitor VIII] | 4.63 |
| CCC(=O)N1CCN(c2ccc(-n3c(=O)ccc4cnc5ccc(-c6cnc7ccccc7c6)cc5c43)cc2C(F)(F)F)CC1 [Torin1] + O=c1[nH]c2ccccc2n1C1CCN(Cc2ccc(-c3[nH]c4cc5ncnc5cc4nc3-c3ccccc3)cc2)CC1 [Akt inhibitor VIII] | 5.43 |
| Nc1ccn([C@@H]2O[C@H](CO)[C@@H](O)C2(F)F)c(=O)n1 [Gemcitabine] + C=CCc1cccc(/C=N/NC(=O)CN2CCN(Cc3ccccc3)CC2)c1O [PAC-1] | 0 |
| C[C@@H](Oc1cc(-c2cnn(C3CCNCC3)c2)cnc1N)c1c(Cl)ccc(F)c1Cl [Crizotinib] + Cc1cc([C@@H](C)Nc2ccccc2C(=O)O)c2nc(N3CCOCC3)cc(=O)n2c1 [AZD6482] | 5.48 |
| C=CCc1cccc(/C=N/NC(=O)CN2CCN(Cc3ccccc3)CC2)c1O [PAC-1] + CCOc1nc(NC(=O)Cc2cc(OC)ccc2OC)cc(N)c1C#N [JNK inhibitor VIII] | 0.501 |
| C#Cc1cccc(Nc2ncnc3cc(OCCOC)c(OCCOC)cc23)c1 [Erlotinib] + N#CC(c1ccnc(NCCc2cccnc2)n1)c1nc2ccccc2s1 [AS601245] | 0 |
| CC(=O)O[C@@]12CO[C@@H]1C[C@H](O)[C@@]1(C)C(=O)[C@H](O)C3=C(C)[C@@H](OC(=O)[C@H](O)[C@@H](NC(=O)OC(C)(C)C)c4ccccc4)C[C@@](O)([C@@H](OC(=O)c4ccccc4)[C@H]21)C3(C)C [Docetaxel] + O=c1[nH]c2ccccc2n1C1CCN(Cc2ccc(-c3[nH]c4cc5ncnc5cc4nc3-c3ccccc3)cc2)CC1 [Akt inhibitor VIII] | 1.56 |
| CO[C@H]1C[C@@H]2CC[C@@H](C)[C@@](O)(O2)C(=O)C(=O)N2CCCC[C@H]2C(=O)O[C@H]([C@H](C)C[C@@H]2CC[C@@H](O)[C@H](OC)C2)CC(=O)[C@H](C)/C=C(\C)[C@@H](O)[C@@H](OC)C(=O)[C@H](C)C[C@H](C)/C=C/C=C/C=C/1C [Rapamycin] + C[C@@H](Oc1cc(-c2cnn(C3CCNCC3)c2)cnc1N)c1c(Cl)ccc(F)c1Cl [Crizotinib] | 11.2 |
| CCC(=O)N1CCN(c2ccc(-n3c(=O)ccc4cnc5ccc(-c6cnc7ccccc7c6)cc5c43)cc2C(F)(F)F)CC1 [Torin1] + CCCCCCCCCCCC1=C(O)C(=O)C=C(O)C1=O [Embelin] | 2.62 |
| C#Cc1cccc(Nc2ncnc3cc(OCCOC)c(OCCOC)cc23)c1 [Erlotinib] + O=c1[nH]c2ccccc2n1C1CCN(Cc2ccc(-c3[nH]c4cc5ncnc5cc4nc3-c3ccccc3)cc2)CC1 [Akt inhibitor VIII] | 0 |
| Nc1ccn([C@@H]2O[C@H](CO)[C@@H](O)C2(F)F)c(=O)n1 [Gemcitabine] + Cc1cc([C@@H](C)Nc2ccccc2C(=O)O)c2nc(N3CCOCC3)cc(=O)n2c1 [AZD6482] | 0 |
| CCCCCCCCCCCC1=C(O)C(=O)C=C(O)C1=O [Embelin] + N#CC(c1ccnc(NCCc2cccnc2)n1)c1nc2ccccc2s1 [AS601245] | 9.51 |
| C#Cc1cccc(Nc2ncnc3cc(OCCOC)c(OCCOC)cc23)c1 [Erlotinib] + CCCCCCCCCCCC1=C(O)C(=O)C=C(O)C1=O [Embelin] | 0 |
| CCC(=O)N1CCN(c2ccc(-n3c(=O)ccc4cnc5ccc(-c6cnc7ccccc7c6)cc5c43)cc2C(F)(F)F)CC1 [Torin1] + N#CC(c1ccnc(NCCc2cccnc2)n1)c1nc2ccccc2s1 [AS601245] | 0 |
